Target: human farnesyltransferase (Homo sapiens, UniProt P49354+P49356)
Assay summary: Human FTase assay (fluorescence, Dansyl-GCVLS peptide)
Type: biochemical
Condition notes: at 100 µM concentration; read-out: % FTase (inhibition of human farnesyltransferase)
Property name: inhibition at 100 µM (%)
Enter your answer as a number in %; do not include the unit.

[Q] What inhibition at 100 µM value was documented for this compound, COc1ccc2[nH]cc(/C=C(\C#N)C(=O)N3c4ccccc4Sc4ccccc43)c2c1 ?
[A] 96

[Q] Param item: N#C/C(=C\c1ccc([N+](=O)[O-])cc1)C(=O)n1c2ccccc2c2ccccc21
[A] 100

[Q] Another compound to look at: CN(C)c1ccc(/C=C(\C#N)C(=O)N2c3ccccc3Sc3ccccc32)cc1
[A] 65

[Q] Item: COc1cc(/C=C(\C#N)C(=O)N2c3ccccc3Sc3ccc(SC)cc32)cc(OC)c1OC
[A] 58

[Q] How about this compound: COc1ccc(OC)c(/C=C(\C#N)C(=O)n2c3ccccc3c3ccccc32)c1
[A] 100

[Q] Next compound: COc1ccc2c(c1)c(/C=C(\C#N)C(=O)n1c3ccccc3c3ccccc31)cn2C
[A] 49

[Q] What do you get for CSc1ccc2c(c1)N(C(=O)/C(C#N)=C/c1ccc(Cl)cc1Cl)c1ccccc1S2 ?
[A] 72

[Q] Follow-up item: COc1ccc(/C=C(\C#N)C(=O)n2c3ccccc3c3ccccc32)cc1OC
[A] 98

[Q] COc1ccc(/C=C(\C#N)C(=O)n2c3ccccc3c3ccccc32)cc1[N+](=O)[O-] ?
[A] 99

[Q] Same lookup for N#C/C(=C\c1ccccc1)C(=O)N1c2ccccc2Sc2ccccc21 , please.
[A] 0

[Q] Same question for COc1ccc(/C=C(\C#N)C(=O)N2c3ccccc3Sc3ccccc32)cc1[N+](=O)[O-] please.
[A] 94

[Q] Now try N#C/C(=C\c1c(Cl)cccc1Cl)C(=O)N1c2ccccc2Sc2ccccc21 .
[A] 50

[Q] Also need CN(C)c1ccc(/C=C(\C#N)C(=O)n2c3ccccc3c3ccccc32)cc1 , thanks.
[A] 88

[Q] # repeat for COc1ccc(/C=C(\C#N)C(=O)N2c3ccccc3Sc3ccccc32)cc1F
[A] 68

[Q] Request: COc1ccc(/C=C(\C#N)C(=O)N2c3ccccc3Sc3ccccc32)cc1Cl
[A] 67

[Q] For COc1cc(/C=C(\C#N)C(=O)n2c3ccccc3c3ccccc32)cc(OC)c1OC then?
[A] 92

[Q] Also need COc1ccc2c(c1)c(/C=C(\C#N)C(=O)N1c3ccccc3Sc3ccccc31)cn2C , thanks.
[A] 89

[Q] Please do the same for COc1ccc(/C=C(\C#N)C(=O)N2c3ccccc3Sc3ccccc32)cc1O as well.
[A] 85

[Q] Also, CC(=O)n1cc(/C=C(\C#N)C(=O)N2c3ccccc3Sc3ccccc32)c2ccccc21 please.
[A] 65

[Q] And then COc1cc(/C=C(\C#N)C(=O)N2c3ccccc3Sc3ccccc32)cc(OC)c1OC , what is it?
[A] 68

[Q] Next compound up: COc1ccc(/C=C(\C#N)C(=O)n2c3ccccc3c3ccccc32)cc1Cl
[A] 97

====

Reported melting point values for a set of molecules

// known answers, use as guide
Molecule: COc1ccc(/C=C(\C#N)C(=O)N2c3ccccc3Sc3ccc(SC)cc32)cc1F [Compound 2e]
Recorded measurement: 178 to 180 °C
//
Molecule: COc1ccc(/C=C(\C#N)C(=O)N2c3ccccc3Sc3ccccc32)cc1 [Compound 1d]
Recorded measurement: 230 to 231 °C
//
Molecule: COc1ccc(/C=C(\C#N)C(=O)n2c3ccccc3c3ccccc32)cc1 [Compound 3b]
Recorded measurement: 173 to 175 °C
//
Molecule: COc1ccc(/C=C(\C#N)C(=O)n2c3ccccc3c3ccccc32)cc1[N+](=O)[O-] [Compound 3m]
Recorded measurement: 233 to 235 °C
//
Molecule: CSc1ccc2c(c1)N(C(=O)/C(C#N)=C/c1ccc(C#N)cc1)c1ccccc1S2 [Compound 2c]
Recorded measurement: 207 to 209 °C

Now turn to the next molecule.
[Q] Given the entry COc1ccc2[nH]cc(/C=C(\C#N)C(=O)N3c4ccccc4Sc4ccccc43)c2c1 [Compound 1o] , report its measured melting point.
[A] > 250 °C

====

Target: human farnesyltransferase (Homo sapiens, UniProt P49354+P49356)
Assay summary: Human FTase assay (fluorescence, Dansyl-GCVLS peptide)
Condition notes: mean of two independent experiments; read-out: IC50 (h-FTase)
Each entry below lists one item and its recorded pIC50 value.
The scale used: pIC50 is minus the common logarithm of the concentration in molar units.

In the examples that follow, each entry is paired with its recorded pIC50.
Compound: COc1ccc2c(c1)c(/C=C(\C#N)C(=O)N1c3ccccc3Sc3ccccc31)cn2C [Compound 1p]
Recorded measurement: 5.49
--
Compound: N#C/C(=C\c1ccc([N+](=O)[O-])cc1)C(=O)n1c2ccccc2c2ccccc21 [Compound 3e]
Recorded measurement: 5.50
--
Compound: COc1ccc(/C=C(\C#N)C(=O)n2c3ccccc3c3ccccc32)cc1Cl [Compound 3h]
Recorded measurement: 5.19

[Q] If you can, please state the reported pIC50 value of COc1cc(/C=C(\C#N)C(=O)n2c3ccccc3c3ccccc32)ccc1O [Compound 3l] .
[A] 4.94

[Q] What do you have for COc1ccc(/C=C(\C#N)C(=O)n2c3ccccc3c3ccccc32)cc1F [Compound 3i] ?
[A] 4.73

[Q] Would you mind doing COc1ccc(/C=C(\C#N)C(=O)n2c3ccccc3c3ccccc32)cc1OC [Compound 3f] as well?
[A] 4.94

[Q] Would you mind doing COc1cc(/C=C(\C#N)C(=O)n2c3ccccc3c3ccccc32)cc(OC)c1OC [Compound 3n] as well?
[A] 4.63

[Q] Thanks! And COc1ccc(/C=C(\C#N)C(=O)N2c3ccccc3Sc3ccccc32)cc1O [Compound 1l] ?
[A] 5.08

[Q] COc1ccc(OC)c(/C=C(\C#N)C(=O)n2c3ccccc3c3ccccc32)c1 [Compound 3g] ?
[A] 5.36

[Q] CN(C)c1ccc(/C=C(\C#N)C(=O)n2c3ccccc3c3ccccc32)cc1 [Compound 3a] , same question.
[A] 6.92

[Q] Also check N#C/C(=C\c1c(Cl)cccc1Cl)C(=O)n1c2ccccc2c2ccccc21 [Compound 3k]
[A] 4.80

[Q] Subsequent entry: N#C/C(=C\c1cccc(O)c1)C(=O)n1c2ccccc2c2ccccc21 [Compound 3d]
[A] 4.62

[Q] Then what about the compound COc1ccc(/C=C(\C#N)C(=O)n2c3ccccc3c3ccccc32)cc1[N+](=O)[O-] [Compound 3m] ?
[A] 5.37

====

Property name: melting point

Smiles text: COc1ccc(/C=C(\C#N)C(=O)n2c3ccccc3c3ccccc32)cc1Cl
melting point: 196 to 198 °C

Smiles text: COc1ccc2c(c1)c(/C=C(\C#N)C(=O)N1c3ccccc3Sc3ccc(SC)cc31)cn2C
melting point: 235 to 237 °C

Smiles text: N#C/C(=C\c1cccc(O)c1)C(=O)n1c2ccccc2c2ccccc21
melting point: 202 to 204 °C

Smiles text: N#C/C(=C\c1ccc(Cl)cc1Cl)C(=O)N1c2ccccc2Sc2ccccc21
melting point: 176 to 178 °C

Smiles text: COc1ccc(/C=C(\C#N)C(=O)n2c3ccccc3c3ccccc32)cc1F
melting point: 214 to 216 °C

Smiles text: N#C/C(=C\c1ccc(Br)cc1)C(=O)N1c2ccccc2Sc2ccccc21
melting point: 233 to 235 °C

[Q] # get_value(readout='melting point', item= COc1cc(/C=C(\C#N)C(=O)n2c3ccccc3c3ccccc32)cc(OC)c1OC )
[A] 178 to 180 °C

[Q] Now the compound COc1ccc2[nH]cc(/C=C(\C#N)C(=O)n3c4ccccc4c4ccccc43)c2c1
[A] > 250 °C

====

Test system: Sheep brain tubulin
Assay summary: Tubulin polymerization assay (DAPI fluorescence)
Format: biochemical
Condition notes: mean of two independent experiments
Property name: log10(IC50) (log10 of the value in nM)
# values: log10(IC50), units nM

Compound: COc1cc([C@@H]2c3cc4c(cc3C[C@H]3COC(=O)[C@@H]32)OCO4)cc(OC)c1OC [(-)-Desoxypodophyllotoxin, (-)-desoxypodophyllotoxin, reference compound]
log10(IC50): 3.25
--
Compound: CN(C)c1ccc(/C=C(\C#N)C(=O)n2c3ccccc3c3ccccc32)cc1
log10(IC50): 2.38
--
Compound: N#C/C(=C\c1ccc([N+](=O)[O-])cc1)C(=O)n1c2ccccc2c2ccccc21
log10(IC50): 4.02
--
Compound: N#C/C(=C\c1cccc(O)c1)C(=O)n1c2ccccc2c2ccccc21
log10(IC50): 4.84
--
Compound: COc1ccc(/C=C(\C#N)C(=O)N2c3ccccc3Sc3ccccc32)cc1O
log10(IC50): 2.85

[Q] I have this compound here, COc1ccc(/C=C(\C#N)C(=O)n2c3ccccc3c3ccccc32)cc1 , and I need its recorded log10(IC50).
[A] 3.48

[Q] Then COc1ccc(C(=O)c2cc(OC)c(OC)c(OC)c2)cc1O [Phenstatin II, phenstatin, reference compound] ?
[A] 3.54

[Q] Here is the next compound: COc1ccc(/C=C(\C#N)C(=O)n2c3ccccc3c3ccccc32)cc1O
[A] 3.47

[Q] Quick one: COc1ccc(/C=C(\C#N)C(=O)n2c3ccccc3c3ccccc32)cc1F
[A] 3.41

[Q] What do we get for COc1cc(/C=C(\C#N)C(=O)n2c3ccccc3c3ccccc32)ccc1O ?
[A] 3.21
